Hi there, I'd appreciate the recorded inhibition for every entry that follows.
- assay procedure: Peptide was evaluated for inhibition in competitive ELISA at a concentration of 1 mM using casein phosphopeptide alpha s1-casein (59-79) as the adsorbed antigen
Numbers only, in %.

Hi! Can you tell me inhibition for each of these compounds?
1. CC[C@H](C)[C@H](N)C(=O)N[C@H](C(=O)N1CCC[C@@H]1C(=O)N[C@@H](CC(N)=O)C(=O)N[C@@H](CO)C(=O)N[C@H](C(=O)N[C@@H](CCC(=O)O)C(=O)N[C@@H](CCC(=O)O)C(=O)NC)C(C)C)C(C)C
2. CC[C@H](C)[C@H](NC(=O)[C@H](COP(=O)(Oc1ccccc1)Oc1ccccc1)NC(=O)[C@H](CCC(=O)O)NC(C)=O)C(=O)N[C@@H](COP(=O)(Oc1ccccc1)Oc1ccccc1)C(=O)N[C@@H](COP(=O)(Oc1ccccc1)Oc1ccccc1)C(=O)N[C@@H](COP(=O)(Oc1ccccc1)Oc1ccccc1)C(=O)N[C@@H](CCC(=O)O)C(=O)NC(CCC(=O)O)C(=O)NC (stereo not given in full)
3. CC[C@H](C)[C@H](N)C(=O)N[C@H](C(=O)N1CCC[C@@H]1C(=O)N[C@@H](CC(N)=O)C(=O)N[C@@H](COP(=O)(Oc1ccccc1)Oc1ccccc1)C(=O)N[C@H](C(=O)N[C@@H](CCC(=O)O)C(=O)N[C@@H](CCC(=O)O)C(=O)NC)C(C)C)C(C)C

Response:
1. 12
2. 20
3. 60.3

Hi! Can you tell me inhibition for each of these compounds?
1. CC[C@H](C)[C@H](NC(=O)[C@H](CCC(=O)O)NC(=O)[C@@H](N)CCC(=O)O)C(=O)N[C@H](C(=O)N1CCC[C@@H]1C(=O)N[C@@H](CC(N)=O)C(=O)O)C(C)C
2. CC[C@H](C)[C@H](NC(=O)[C@H](COP(=O)(Oc1ccccc1)Oc1ccccc1)NC(=O)[C@H](CCC(=O)O)NC(=O)[C@H](C)NC(=O)[C@@H](N)CCC(=O)O)C(=O)NC

Response:
1. 10.8
2. 10.9
